So I've got a bunch of compounds here, and I need their log10 GI50 values.
- Study Target: Ba/F3 FLT3-ITD cells (Homo sapiens, UniProt P36888, cells depend on it, form not given)
- Construct: Ba/F3 FLT3-ITD IC50 (nM); other: CellTiter-Glo, 72 hrs
- Assay: Cytotoxicity assay (CellTiter-Glo), Ba/F3 FLT3-ITD
- Type: cell-based
- Cond: CellTiter-Glo, 72 hrs; read-out: Ba/F3 FLT3-ITD IC50
- Protocol: Inhibitory effects of example compounds on the activity of Ba/F3 parental generation, Ba/F3 KIF5B-RET, Ba/F3 KIF5B-RET^V804M, Ba/F3 KIF5B-RET^V804L, Ba/F3 KIF5B-RET^G810R, Ba/F3 FLT3-ITD, Ba/F3 FLT3-ITD^D835Y, Ba/F3 FLT3-ITD^F691L cells were determined. […] 1. Cells in the logarithmic growth phase were harvested and counted with a […]. Cell viability was detected by a trypan blue exclusion method, ensuring that cell viability was 90% or more; 2. […] 1. […] Luminescence value was read. […]
Units before log transform: nM; reported quantity: GI50; transform: log10.

CC(C)n1nc(-c2ccc(CC(=O)Nc3cc(C(C)(C)C(F)(F)F)no3)cc2)c2c(N)ncnc21 [Compound T-8]	-0.60
[2H]C([2H])([2H])C(n1cc(-c2ccc(CC(=O)Nc3cc(C(C)(C)C(F)(F)F)on3)cc2)c2c(N)ncnc21)C([2H])([2H])[2H] [Compound T-12]	-0.15
CC(C)c1nc(-c2ccc(CC(=O)Nc3cc(C(C)(C)C(F)(F)F)on3)cc2)c2c(N)ncnn12 [Compound T-10]	-0.49

Return reported log10 GI50 values for all items listed beneath this line.
1. CC(C)n1nc(-c2ccc(NC(=O)Nc3cc(C(C)(C)C(F)(F)F)on3)cc2)c2c(N)ncnc21 [Compound T-2]
2. CC(C)n1nc(-c2ccc(CC(=O)Nc3cc(C(C)(C)C(F)(F)F)no3)cn2)c2c(N)ncnc21 [Compound T-9]
3. CC(C)c1cc(-c2ccc(CC(=O)Nc3cc(C(C)(C)C(F)(F)F)on3)cc2)c2c(N)ncnn12 [Compound T-5]
4. CC(C)n1nc(-c2ccc(CC(=O)Nc3cc(C(C)(C)C(F)(F)F)on3)c(F)c2)c2c(N)ncnc21 [Compound T-6]

1: -0.39; 2: 0.74; 3: 0.28; 4: -0.40

###

- Study Target: Ba/F3 KIF5B-RET^V804M cells (Homo sapiens, UniProt P07949, V804M, cells depend on it)
- Construct: Ba/F3 KIF5B-RET^V804M IC50 (nM); other: CellTiter-Glo, 72 hrs; fused on or other part: P33176 (Kinesin-1 heavy chain)
- Sequence (P07949 whole entry V804M, the tested form may be a part): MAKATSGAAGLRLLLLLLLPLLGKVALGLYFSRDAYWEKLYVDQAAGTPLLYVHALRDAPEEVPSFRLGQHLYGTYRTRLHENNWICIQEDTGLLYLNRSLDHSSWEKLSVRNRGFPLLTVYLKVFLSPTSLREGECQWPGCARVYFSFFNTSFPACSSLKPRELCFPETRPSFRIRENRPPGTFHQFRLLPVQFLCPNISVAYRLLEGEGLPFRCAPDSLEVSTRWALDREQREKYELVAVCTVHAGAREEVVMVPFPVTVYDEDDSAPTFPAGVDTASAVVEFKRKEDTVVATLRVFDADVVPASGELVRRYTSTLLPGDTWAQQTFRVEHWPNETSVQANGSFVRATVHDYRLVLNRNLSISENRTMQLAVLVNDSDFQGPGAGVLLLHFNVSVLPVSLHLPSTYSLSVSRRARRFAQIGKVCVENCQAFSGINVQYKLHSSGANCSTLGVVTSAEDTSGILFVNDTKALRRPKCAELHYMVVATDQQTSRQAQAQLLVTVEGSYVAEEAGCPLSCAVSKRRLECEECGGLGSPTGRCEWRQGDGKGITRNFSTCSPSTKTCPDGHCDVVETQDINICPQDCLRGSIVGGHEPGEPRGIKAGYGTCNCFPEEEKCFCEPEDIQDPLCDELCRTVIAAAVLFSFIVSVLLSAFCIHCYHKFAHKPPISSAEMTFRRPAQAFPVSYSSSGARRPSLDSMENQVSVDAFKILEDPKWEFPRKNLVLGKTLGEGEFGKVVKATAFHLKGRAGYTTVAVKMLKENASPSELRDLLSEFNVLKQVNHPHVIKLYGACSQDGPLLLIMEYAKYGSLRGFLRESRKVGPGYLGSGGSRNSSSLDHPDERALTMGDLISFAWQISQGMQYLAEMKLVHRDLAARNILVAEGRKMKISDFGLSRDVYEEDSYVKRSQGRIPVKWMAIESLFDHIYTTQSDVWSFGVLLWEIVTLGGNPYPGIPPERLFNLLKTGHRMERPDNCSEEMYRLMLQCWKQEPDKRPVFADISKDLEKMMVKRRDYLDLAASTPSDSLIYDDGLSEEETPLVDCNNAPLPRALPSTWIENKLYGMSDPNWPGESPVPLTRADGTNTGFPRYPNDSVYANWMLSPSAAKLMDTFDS
- Assay: Cytotoxicity assay (CellTiter-Glo), Ba/F3 KIF5B-RET V804M
- Assay type: cell-based
- Cond: CellTiter-Glo, 72 hrs; read-out: Ba/F3 KIF5B-RET^V804M IC50
- Description: Inhibitory effects of example compounds on the activity of Ba/F3 parental generation, Ba/F3 KIF5B-RET, Ba/F3 KIF5B-RET^V804M, Ba/F3 KIF5B-RET^V804L, Ba/F3 KIF5B-RET^G810R, Ba/F3 FLT3-ITD, Ba/F3 FLT3-ITD^D835Y, Ba/F3 FLT3-ITD^F691L cells were determined. […] 1. Cells in the logarithmic growth phase were harvested and counted with a […]. Cell viability was detected by a trypan blue exclusion method, ensuring that cell viability was 90% or more; 2. […] 1. […] Luminescence value was read. […]
Reported Metric: GI50 (nM)
Give bare numbers, in nM.

As a guide, the following entries are already answered.
CC(C)c1nc(-c2ccc(CC(=O)Nc3cc(C(C)(C)C(F)(F)F)on3)cc2)c2c(N)nccn12	9.53
CC(C)n1nc(-c2ccc(CC(=O)Nc3cc(C(C)(C)C(F)(F)F)no3)cn2)c2c(N)ncnc21	29.9
CC(C)n1nc(-c2ccc(NC(=O)Nc3cc(C(F)(F)F)ccc3F)cc2)c2c(N)ncnc21 [AD80, reference compound]	10.8
CC(C)n1nc(-c2ccc(CC(=O)Nc3cc(C(C)(C)C(F)(F)F)on3)cc2)c2c(N)ncnc21	5.65
[2H]C([2H])([2H])C(n1cc(-c2ccc(CC(=O)Nc3cc(C(C)(C)C(F)(F)F)on3)cc2)c2c(N)ncnc21)C([2H])([2H])[2H]	4.55

Give me GI50 for each of these compounds, listed below.
1. CC(C)n1nc(-c2ccc(NC(=O)Nc3cc(C(C)(C)C(F)(F)F)on3)cc2)c2c(N)ncnc21
2. CC(C)n1nc(-c2ccc(CC(=O)Nc3cc(C(C)(C)C(F)(F)F)on3)c(F)c2)c2c(N)ncnc21

1. 2.64
2. 9.9
